Assayed System: AAV8 (adeno-associated virus serotype 8)
Procedure Details: SPR, AAV on CM5 chip
Quantity: Kd (nM)
Express the result in nM but write the number alone.

Q: Given the entry A4-C1 (VHH) VQLQESGGGLVQPGGSLRLSCAASGSGFSINTMGWYRQAPGKQRELVATVTRDGSTNYADFVKGRFTISRDNAKNTVYLQMNSLRPEDTAVYYCHLDEVRESSWTTSNLWGQGTQVTVSSGGGGSGGGGSGGGGSVQLQESGGGLVQPGGSLRLSCAASGSGFSINTMGWYRQAPGKQRELVATVTRDGSTNYADFVKGRFTISRDNAKNTVYLQMNSLRPEDTAVYYCHLDEVRESSWTTSNLWGQGTQVTVSSGGGGSGGGGSGGGGSVQLQESGGGLVQPGGSLRLSCAASGSGFSINTMGWYRQAPGKQRELVATVTRDGSTNYADFVKGRFTISRDNAKNTVYLQMNSLRPEDTAVYYCHLDEVRESSWTTSNLWGQGTQVTVSS , report its measured Kd.
Result: 9.2
